Values compiled from patent US10793568B2.

A collection of molecules and their measured pEC50
- subject_of_test: ligand binding domain of human FXR (Homo sapiens (Human), UniProt Q96RI1)
- Sequence (Q96RI1 262-486): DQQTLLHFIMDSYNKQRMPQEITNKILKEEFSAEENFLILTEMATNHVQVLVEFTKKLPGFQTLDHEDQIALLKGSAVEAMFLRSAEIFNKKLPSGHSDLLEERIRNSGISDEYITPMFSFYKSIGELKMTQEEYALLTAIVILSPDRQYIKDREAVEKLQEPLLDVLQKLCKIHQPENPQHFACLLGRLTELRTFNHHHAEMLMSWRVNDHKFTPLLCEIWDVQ
- assay_info: FXR ligand binding assay (LanthaScreen TR-FRET, SRC2-2 peptide recruitment)
- condition_parameters: -log EC50, concentration required to produce 50% activation

| molecule | pEC50 |
| --- | --- |
| O=S(=O)(O)c1ccc(N2C[C@@H]3C[C@H]2C[C@H]3OCc2c(-c3c(Cl)cccc3Cl)noc2C2CC2)cc1 | 8.2 |
| N#Cc1cc(CCC(=O)O)ccc1N1C[C@@H]2C[C@H]1C[C@H]2OCc1c(-c2c(Cl)cccc2Cl)noc1C1CC1 | 7.6 |
| Cc1cccc(Cl)c1-c1noc(C2CC2)c1CO[C@@H]1C[C@@H]2C[C@H]1CN2c1nc2c([C@@H]3CCOC3)cc(C(=O)O)cc2s1 | 8.4 |
| O=C(NS(=O)(=O)[C@@H]1CCC[C@H]1O)c1ccc(N2C(=O)[C@@H]3C[C@H]2C[C@H]3OCc2c(-c3c(Cl)cccc3Cl)noc2C2CC2)cc1F | 8.2 |
| O=C(O)c1cc([C@@H]2C[C@H]3CC[C@@H](C2)O3)c2nc(N3C[C@@H]4C[C@H]3C[C@H]4OCc3c(-c4c(Cl)cccc4Cl)noc3C3CC3)sc2c1 | 8.4 |
| Cc1cccc(Cl)c1-c1noc(C2CC2)c1CO[C@@H]1C[C@@H]2C[C@H]1CN2c1ccc(C(=O)O)c(F)c1 | 9.6 |
| O=c1[nH]c2cc(N3C[C@@H]4C[C@H]3C[C@H]4OCc3c(-c4c(Cl)cccc4Cl)noc3C3CC3)ccc2o1 | 9.1 |
| O=C(NS(=O)(=O)[C@@H]1CCC[C@H]1O)c1ccc(N2C(=O)[C@@H]3C[C@H]2C[C@H]3OCc2c(-c3c(Cl)cccc3Cl)noc2C2CC2)cc1 | 8.4 |
| O=C(O)c1cc(O[C@H]2CCOC2)c2nc(N3C[C@@H]4C[C@H]3C[C@H]4OCc3c(-c4c(F)cccc4Cl)noc3C3CC3)sc2c1 | 8.6 |
| O=C(O)c1ccc(N2C[C@@H]3C[C@H]2C[C@H]3OC(=O)c2c(-c3c(Cl)cccc3Cl)noc2C2(F)CC2)c(F)c1 | 7.6 |
| O=C(O)c1ccc(N2C[C@@H]3C[C@H]2C[C@H]3OCc2c(-c3c(Cl)cccc3Cl)noc2C2CC2)c(C2CC2)c1 | 9.1 |
| CC1(C)CC(S(=O)(=O)NC(=O)c2ccc(N3C(=O)[C@@H]4C[C@H]3C[C@H]4OCc3c(-c4c(Cl)cccc4Cl)noc3C3CC3)cn2)CCO1 (stereo partly drawn) | 8.1 |
| O=C(NS(=O)(=O)C1COC1)c1ccc(N2C[C@@H]3C[C@H]2C[C@H]3OCc2c(-c3c(Cl)cccc3Cl)noc2C2CC2)cc1 | 7.7 |
| CCc1cc(C(=O)O)cc2sc(N3C[C@@H]4C[C@H]3C[C@H]4OCc3c(-c4c(Cl)cccc4Cl)noc3C3CC3)nc12 | 8.5 |
| Cc1cccc(Cl)c1-c1noc(C2CC2)c1CO[C@@H]1C[C@@H]2C[C@H]1CN2c1ccc(CCC(=O)O)cc1F | 8.2 |
| O=C(O)CCc1ccc(N2C(=O)[C@@H]3C[C@H]2C[C@H]3OCc2c(-c3c(Cl)cccc3Cl)noc2C2CC2)cc1F | 7.5 |
| O=C(c1ccc(N2C[C@@H]3C[C@H]2C[C@H]3OCc2c(-c3c(Cl)cccc3Cl)noc2C2CC2)cc1)C(F)(F)F | 7.8 |
| O=C(NS(=O)(=O)CCC1CCOC1)c1ccc(N2C(=O)[C@@H]3C[C@H]2C[C@H]3OCc2c(-c3c(Cl)cccc3Cl)noc2C2CC2)cc1 (stereo partly drawn) | 8.6 |
| CCCS(=O)(=O)NC(=O)c1ccc(N2C[C@@H]3C[C@H]2C[C@H]3OCc2c(-c3ccccc3C(F)(F)F)noc2C2CC2)c(F)c1 | 8.6 |
| Cc1cc(C(=O)NCCP(=O)(O)O)ccc1N1C[C@@H]2C[C@H]1C[C@H]2OCc1c(-c2c(Cl)cccc2Cl)noc1C1CC1 | 9.2 |
| COCC(=O)NCCCCCCCCCCS(=O)(=O)NC(=O)c1ccc(N2C[C@@H]3C[C@H]2C[C@H]3OCc2c(-c3c(Cl)cccc3Cl)noc2C2CC2)c(F)c1 | 9.5 |
| C[C@H]1[C@H]2C[C@H](C[C@@H]2OCc2c(-c3c(Cl)cccc3Cl)noc2C2CC2)N1c1ccc(C(=O)NS(=O)(=O)C2CCOCC2)nc1 | 6.1 |
| O=C1NCc2cc(N3C[C@@H]4C[C@H]3C[C@H]4OCc3c(-c4c(Cl)cccc4Cl)noc3C3CC3)ccc21 | 9.4 |
| O=C(O)c1cc(F)c2nc(N3C[C@@H]4C[C@H]3C[C@H]4OCc3c(-c4c(Cl)cc(O)cc4Cl)noc3C3CC3)sc2c1 | 9.2 |
